The following compounds were reported with IC50 values on Adenosine receptor A3 (Homo sapiens, UniProt P0DMS8) in different studies.
Simple rule here: IC50 less than 7 nM is 1, otherwise -1.

• CCCCCCCc1nc2nc[nH]c2c2nc(-c3ccccc3)nn12 = -1
• Cc1cccc(-c2nc3nc[nH]c3c3nc(-c4ccccc4)nn23)c1 = 1
• CCCCc1nc2nc[nH]c2c2nc(-c3ccc4ccccc4c3)nn12 = 1
• CCCCc1nc2nc[nH]c2c2nc(-c3ccccc3O)nn12 = 1
• COc1ccc(-c2nc(NC(C)=O)sc2-c2ccncc2)cc1 = 1
• CCCCc1nc2nc[nH]c2c2nc(-c3ccc(NCc4ccccc4)cc3)nn12 = 1
• CCCCc1nc2nc[nH]c2c2nc(-c3ccc(Oc4ccccc4)cc3)nn12 = 1
• COc1cccc(-c2nc3c(C#N)c(NCc4ccccc4)c4cc(N5CCOCC5)ccc4n3n2)c1 = -1
• COc1ccc(-c2c(-c3ccncc3)sc3nc(=O)cc(N)n23)cc1 = 1
• CCCCc1nc2nc[nH]c2c2nc(-c3ccc(C(C)C)cc3)nn12 = 1
